Documented DC50 across a set of molecules
- measured.on: TYK2 (Homo sapiens)
- Construct: Degradation of TYK2 in cells was quantitatively measured using Meso Scale Discovery (MSD) technology; endogenous in cells; host or cells: OCI-LY10
- measurement.protocol: TYK2 MSD degradation in OCI-LY10 cells
- Assay type: cell-based
- run.parameters: TYK2 degradation in OCI-LY10 cells, 4 to 24 hours incubation, read-out: TYK2 MSD OCI-LY10 Rel-DC50
readout.label: DC50

molecule="CNc1cc(N2CCc3c(CN4CCC(N5CCN(CCc6ccc(Cl)c(C7CCC(=O)NC7=O)c6)CC5)C(F)(F)C4)cccc32)nn2c(C(=O)NC3CC3F)cnc12 (centres unmarked)" reported_measurement="< 10 nM"
molecule="CNc1cc(N2CCc3c(CN4CCC(N5CCC6(CCN(C(=O)c7ccc(Cl)c(N8CCC(=O)NC8=O)c7)CC6)CC5)C(F)(F)C4)cc(F)cc32)nn2c(C(=O)N[C@@H]3C[C@@H]3F)cnc12 (some centres unmarked)" reported_measurement="< 1 nM"
molecule="CNc1cc(N2CCc3c(-c4ccc(CN5CCC(N6CCC7(CCN(c8ccc9c(c8)n(C)c(=O)n9C8CCC(=O)NC8=O)CC7)CC6)C(F)(F)C5)cn4)cccc32)nn2c(C(=O)N[C@@H]3C[C@@H]3F)cnc12 (some centres unmarked)" reported_measurement="< 10 nM"
molecule="CNc1cc(N2CCc3c(CN4CCC(N5CC6(CCN(C(=O)c7cc(Cl)c(C)c(N8CCC(=O)NC8=O)c7)CC6)C5)C(F)(F)C4)cccc32)nn2c(C(=O)N[C@@H]3CC[C@H]3OC)cnc12 (some centres unmarked)" reported_measurement="< 1 nM"
molecule=CNc1cc(N2CCc3c(CN4CCC(N5CCC6(CCN(C(=O)c7ccc(Cl)c(N8CCC(=O)NC8=O)c7)CC6)CC5)CC4)cccc32)nn2c(C(=O)N[C@@H]3C[C@@H]3F)cnc12 reported_measurement="< 10 nM"

----------
Documented DC50 across a set of molecules
- measured.on: TYK2 (Homo sapiens, UniProt P29597)
- Construct: Degradation of TYK2 in cells was quantitatively measured using Meso Scale Discovery (MSD) technology; endogenous in cells; host or cells: OCI-LY10
- Sequence (P29597 whole entry): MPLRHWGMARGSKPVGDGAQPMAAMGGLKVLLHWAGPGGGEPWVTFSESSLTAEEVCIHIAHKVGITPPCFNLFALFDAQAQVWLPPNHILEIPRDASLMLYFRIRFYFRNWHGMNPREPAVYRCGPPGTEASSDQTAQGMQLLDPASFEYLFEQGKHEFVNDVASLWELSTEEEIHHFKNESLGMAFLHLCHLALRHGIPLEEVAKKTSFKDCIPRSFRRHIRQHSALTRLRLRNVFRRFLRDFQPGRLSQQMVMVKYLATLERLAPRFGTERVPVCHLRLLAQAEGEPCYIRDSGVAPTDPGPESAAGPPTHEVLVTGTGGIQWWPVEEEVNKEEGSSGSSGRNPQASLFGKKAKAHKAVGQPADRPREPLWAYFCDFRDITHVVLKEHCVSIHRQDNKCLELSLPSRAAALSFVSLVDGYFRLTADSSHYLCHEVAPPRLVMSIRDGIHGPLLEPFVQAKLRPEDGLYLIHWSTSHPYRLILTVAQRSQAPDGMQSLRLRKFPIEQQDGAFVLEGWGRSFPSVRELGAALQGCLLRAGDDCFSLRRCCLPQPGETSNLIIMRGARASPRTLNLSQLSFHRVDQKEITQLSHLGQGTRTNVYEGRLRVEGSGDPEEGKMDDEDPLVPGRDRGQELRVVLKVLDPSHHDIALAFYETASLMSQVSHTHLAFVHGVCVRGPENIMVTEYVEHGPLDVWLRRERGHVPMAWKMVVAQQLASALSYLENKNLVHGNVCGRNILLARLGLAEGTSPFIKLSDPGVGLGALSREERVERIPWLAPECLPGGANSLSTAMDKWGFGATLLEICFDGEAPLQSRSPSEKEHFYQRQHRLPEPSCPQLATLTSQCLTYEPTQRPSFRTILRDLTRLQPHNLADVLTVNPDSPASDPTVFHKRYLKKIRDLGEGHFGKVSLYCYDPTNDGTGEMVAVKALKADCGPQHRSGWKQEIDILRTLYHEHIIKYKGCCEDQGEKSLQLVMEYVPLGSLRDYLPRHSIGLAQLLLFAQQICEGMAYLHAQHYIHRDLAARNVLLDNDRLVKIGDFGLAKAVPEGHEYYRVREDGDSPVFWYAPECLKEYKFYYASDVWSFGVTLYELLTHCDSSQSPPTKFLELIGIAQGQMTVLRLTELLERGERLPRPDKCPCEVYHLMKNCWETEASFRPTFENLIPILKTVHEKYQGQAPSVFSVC
- measurement.protocol: TYK2 MSD degradation in OCI-LY10 cells
- Format: cell-based
- run.parameters: TYK2 degradation in OCI-LY10 cells, 4 to 24 hours incubation, read-out: TYK2 MSD OCI-LY10 Rel-DC50
readout.label: DC50

molecule=CNc1cc(N2CCc3c(N4CCC(CN5CC6(CCN(Cc7ccc(Cl)c(N8CCC(=O)NC8=O)c7)CC6(F)F)C5)CC4)cccc32)nn2c(C(=O)N[C@@H]3C[C@@H]3F)cnc12 reported_measurement="> 100 nM"
molecule=CNc1cc(N2CCc3c(-c4ncc(CN5CCC6(CCN(C(=O)c7cc(C)c(Cl)c(N8CCC(=O)NC8=O)c7)CC6)C(F)(F)C5)cc4F)cccc32)nn2c(C(=O)N[C@@H]3C[C@@H]3F)cnc12 reported_measurement="< 10 nM"
molecule="CNc1cc(N2CCc3c(CN4CCC(N5CC(N6CCN(c7ccc8c(c7)n(C)c(=O)n8C7CCC(=O)NC7=O)CC6)C5)C(F)(F)C4)cccc32)nn2c(C(=O)N[C@@H]3C[C@@H]3F)cnc12 (stereo partly shown)" reported_measurement="< 1 nM"
molecule="CNc1cc(N2CCc3c(-c4ccc(CN5CCC6(CCC(Oc7ccc(Cl)c(N8CCC(=O)NC8=O)c7)CC6)C(F)(F)C5)cn4)cccc32)nn2c(C(=O)NC3CCC3OC)cnc12 (stereo not shown)" reported_measurement="< 10 nM"
molecule=CNc1cc(N2CCc3c(-c4ccc(CN5CC6(CCN(C(=O)c7ccc(Cl)c(N8CCC(=O)NC8=O)c7)CC6(F)F)C5)cn4)cccc32)nn2c(C(=O)N[C@@H]3C[C@@H]3F)cnc12 reported_measurement="< 1 nM"
molecule="CNc1cc(N2CC3(CCN(c4cccc5c4n(C)c(=O)n5C4CCC(=O)NC4=O)CC3)c3ccccc32)nn2c(C(=O)NC3CC3)cnc12 (stereo not shown)" reported_measurement="> 100 nM"
molecule="CNc1cc(N2CCc3c(-c4ccc(CN5CC6(CCN(Cc7ccc(Cl)c(N8CCC(=O)NC8=O)c7)CC6(F)F)C5)cn4)cccc32)nn2c(C(=O)NC3CCC3OC)cnc12 (stereo not shown)" reported_measurement="< 10 nM"
molecule=CNc1cc(N2CCc3c(-c4ccc(CN5CC6(CCN(C(=O)c7ccc(Cl)c(N8CCC(=O)NC8=O)c7)CC6(F)F)C5)cn4)cc(C(F)(F)F)cc32)nn2c(C(=O)N[C@@H]3C[C@@H]3F)cnc12 reported_measurement="10 to 100 nM"
molecule=CNc1cc(N2CCc3c(C#CCN4CCC5(CCN(C(=O)c6ccc(Cl)c(N7CCC(=O)NC7=O)c6)CC5)C(F)(F)C4)cccc32)nn2c(C(=O)N[C@@H]3C[C@@H]3F)cnc12 reported_measurement="< 10 nM"
molecule=CNc1cc(N2CCc3c(-c4ncc(CN5CCC6(CCN(C(=O)c7cc(C)c(Cl)c(N8CCC(=O)NC8=O)c7)CC6)C(F)(F)C5)cc4F)cccc32)nn2c(C(=O)N[C@@H]3CC[C@H]3OC)cnc12 reported_measurement="< 10 nM"
